Biological target: IRAK4 (Homo sapiens)
Construct: endogenous in cells; host or cells: Karpas299
Sequence (Q9NWZ3 1-460): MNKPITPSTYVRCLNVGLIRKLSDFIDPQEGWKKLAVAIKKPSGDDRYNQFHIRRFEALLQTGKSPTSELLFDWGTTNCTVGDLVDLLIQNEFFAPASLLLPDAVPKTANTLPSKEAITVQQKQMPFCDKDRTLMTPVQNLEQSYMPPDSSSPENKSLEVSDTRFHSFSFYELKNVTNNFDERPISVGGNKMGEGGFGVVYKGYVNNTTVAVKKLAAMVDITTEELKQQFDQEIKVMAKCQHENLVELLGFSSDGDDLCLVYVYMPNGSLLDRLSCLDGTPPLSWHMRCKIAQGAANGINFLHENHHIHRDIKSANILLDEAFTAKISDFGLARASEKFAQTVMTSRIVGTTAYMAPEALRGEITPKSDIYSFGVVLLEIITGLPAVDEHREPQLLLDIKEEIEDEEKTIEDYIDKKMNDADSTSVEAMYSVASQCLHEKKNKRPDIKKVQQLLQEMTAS
Assay: IRAK4 Degradation Assay (Karpas299, HTRF/TR-FRET)
Type: cell-based
Settings: Karpas-299 cells, 24 h treatment; maximum percentage of degradation; read-out: IRAK4 in Karpas-299 (24 h) Dmax (%)
endpoint.label: Dmax (%)

Sample answers from the record:
compound	target.entity	Dmax, %
CC(C)(O)c1cc2nn([C@H]3CC[C@H](C4CCN(C5CCN(c6cc(F)c([C@H]7CCC(=O)NC7=O)c(F)c6)CC5)CC4)CC3)cc2cc1NC(=O)c1ccc2cc(C#N)cnn12 [Example 409]	IRAK4 (Homo sapiens)	97
COC[C@H]1CN([C@H]2CC[C@H](n3cc4cc(NC(=O)c5ccc6cc(C#N)cnn56)c(C(C)(C)O)cc4n3)CC2)CCN1C(=O)[C@@H]1CCN(c2cc(F)c(N3CCC(=O)NC3=O)c(F)c2)C1 [Example 316]	IRAK4 (Homo sapiens)	97
C[C@@H]1CN([C@H]2C[C@@H](c3cc(F)c([C@H]4CCC(=O)NC4=O)c(F)c3)C2)CCN1[C@H]1CC[C@H](n2cc3cc(NC(=O)c4ccc5cc(C#N)cnn45)c(C(C)(C)O)cc3n2)CC1 [Example 365]	IRAK4 (Homo sapiens)	93
CC(C)(O)c1cc2nn(C3CCN(C4CCN(C(=O)[C@H]5CCN(c6ccc(N7CCC(=O)NC7=O)cc6)C5)CC4)CC3)cc2cc1NC(=O)c1cccc(C(F)(F)F)n1 [Example 163]	IRAK4 (Homo sapiens)	95
C[C@@H]1CN(C2CCN(c3cc(F)c([C@H]4CCC(=O)NC4=O)c(F)c3)CC2)CCN1[C@H]1CC[C@H](n2cc3cc(NC(=O)c4ccc5cc(C#N)cnn45)c(C(C)(C)O)cc3n2)CC1 [Example 301]	IRAK4 (Homo sapiens)	100

[1] Cc1nc(C2CCC(=O)NC2=O)ccc1N1CCC(N2CCN(C34CCC(n5cc6cc(NC(=O)c7ccc8cc(C#N)cnn78)c(C(C)(C)O)cc6n5)(CC3)CC4)CC2)CC1 (centres unmarked) [Example 416]
[2] CC1(C)OC(c2ccc3cc(C#N)cnn23)=Nc2cc3cn(C4CCN(C5CCN(C(=O)[C@@H]6CCN(c7cc(F)c([C@H]8CCC(=O)NC8=O)c(F)c7)C6)CC5)CC4)nc3cc21 [Example 412]
[3] COc1cc2nn([C@H]3CC[C@H](CN4CCN(C(=O)[C@H]5CC[C@H](Oc6ccc(N7CCC(=O)NC7=O)cc6)CC5)CC4)CC3)cc2cc1NC(=O)c1cccc(C(F)(F)F)n1 [Example 6]
Order the entries by their reported Dmax, beginning at the minimum. Use the labels to give the ranking in the order requested. 2, 3, 1
